- MEASURED_ON: cloned human dopamine D3 receptors (Homo sapiens)
- Construct: expressed in transfected cells; membrane homogenate
- Sequence (P35462 whole entry): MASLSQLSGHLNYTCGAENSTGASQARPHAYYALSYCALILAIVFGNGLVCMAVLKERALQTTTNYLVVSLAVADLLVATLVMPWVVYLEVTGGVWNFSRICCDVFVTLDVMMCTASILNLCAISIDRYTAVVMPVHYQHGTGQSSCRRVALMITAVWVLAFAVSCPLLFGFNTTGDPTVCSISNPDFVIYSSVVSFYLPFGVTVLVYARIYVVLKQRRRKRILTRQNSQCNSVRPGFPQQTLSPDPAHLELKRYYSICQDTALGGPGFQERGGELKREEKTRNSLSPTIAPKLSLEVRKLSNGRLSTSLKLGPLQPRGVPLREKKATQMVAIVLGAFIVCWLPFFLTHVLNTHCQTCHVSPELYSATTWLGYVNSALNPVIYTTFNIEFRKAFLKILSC
- ASSAY_INFO: [N-Methyl-3H]Spiroperidol binding to cloned human dopamine D3 receptors (Protocol 1)
- PARTICULARS: the 13th table, unit inferred; read-out: D3Ki
- Description: [N-Methyl-^3H]Spiroperidol Binding to Cloned Human Dopamine D3 Receptors This assay measures the in vitro activity of compounds on cloned human dopamine (D3) receptors and predicts the direct dopamine-blocking properties of putative neuropsychiatric agents at human dopamine D3 receptors. The D3 gene was isolated from a human striatal cDNA library (Stratagene). The gene was sequenced and sub-cloned into the expression vector RC/RSV (Invitrogen). […]
pKi: −log10 of the molar value.
Respond with label 1 for pKi values of 8 and above, label 0 for values below.

{"COMPOUND": "Cc1oc(-c2ccccc2)cc1C(=O)NCCCCN1CCCN(c2csc3cc(C(F)(F)F)ccc23)CC1 [S980662]", "CATEGORY": "label 0"}
{"COMPOUND": "CC1=C(C(=O)NCCCCN2CCCN(c3csc4cc(F)ccc34)CC2)Cc2ccccc21 [S977827]", "CATEGORY": "label 1"}
{"COMPOUND": "O=C(NCCCCCN1CCCN(c2csc3cc(F)ccc23)CC1)c1n[nH]c2ccccc12 [S984511]", "CATEGORY": "label 0"}
{"COMPOUND": "COc1ccc(C(=O)NCCCCN2CCCN(c3csc4cc(F)ccc34)CC2)cc1 [S981845]", "CATEGORY": "label 1"}
{"COMPOUND": "O=C(NCCCCN1CCCN(c2csc3cc(F)ccc23)CC1)c1ccccc1I [S981851]", "CATEGORY": "label 1"}
{"COMPOUND": "O=C(NCCCCN1CCCN(c2csc3cc(F)ccc23)CC1)c1ccc(C(F)(F)F)cc1 [S9818147]", "CATEGORY": "label 0"}
